Molecular target: T1, 4H797-bA
T1 chain: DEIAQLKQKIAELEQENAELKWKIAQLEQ
Experiment: two-hybrid library CCNG1;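 note: natural log of median RNA to DNA barcode read ratio; higher means stronger binding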
readout: interaction score

Known results for binders:
binder: DEIAQLKQENAELEQKIAELKWENAQLEQ [4H683-bA]
interaction score: -1.06

binder: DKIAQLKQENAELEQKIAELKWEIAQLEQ [4H2729-bA]
interaction score: -1.21

(P) DEIAQLEQKNAELKQEIAELKWEIAQLEQ [4H457-bA]
(Q) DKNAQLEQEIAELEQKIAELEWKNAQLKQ [4H3112-bA]
Field: lower interaction score | Options: P / Q Reply with the label of the item you choose.
P
